All figures here come from patent US20140112930A1.

assay.target: T1, Monomeric hAng-2FD (human, UniProt O15123 282-496)
T1 construct: also called fibrinogen-like domain of human Ang2; Human Ang-2FD
T1 sequence: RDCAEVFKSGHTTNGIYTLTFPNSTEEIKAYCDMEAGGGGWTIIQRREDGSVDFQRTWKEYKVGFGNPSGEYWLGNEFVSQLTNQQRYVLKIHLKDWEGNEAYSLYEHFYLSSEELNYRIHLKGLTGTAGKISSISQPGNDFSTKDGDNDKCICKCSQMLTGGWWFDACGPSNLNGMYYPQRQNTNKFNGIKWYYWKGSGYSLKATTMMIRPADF
assay.protocol: SPR, captured Ab
quantity.measured: T1/2 (min)

1) H1H690P (antibody, V domains shown) VH: EVQLVESGGGLVQPGESLRLSCAASGFTFSSYAMSWVRQGPGKGLEWVSSITGSGDTTYYADSVKGRFTISRDNSKNTLYLHMNSLRAEDTAVYYCAKDFLDYSTYLAFDLWGQGTMVTVSS VL: EIVLTQSPATLSLSPGERATLSCRASQSVSSYLTWYQQKPGQAPRLLSYDASNRATGIPARFSGSGSGTDFTLTISSLEPEDFAVYYCQQRSNWPLTFGGGTKVEIK = 25.2
2) H1H724N (antibody, V domains shown) VH: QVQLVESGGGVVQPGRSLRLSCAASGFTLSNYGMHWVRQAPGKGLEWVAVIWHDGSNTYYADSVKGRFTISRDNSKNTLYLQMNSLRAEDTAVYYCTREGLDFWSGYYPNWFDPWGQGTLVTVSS VL: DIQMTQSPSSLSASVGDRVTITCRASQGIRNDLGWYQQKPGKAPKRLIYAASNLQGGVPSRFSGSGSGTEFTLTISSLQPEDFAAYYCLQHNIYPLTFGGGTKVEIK = 13.3
3) H1H706P (antibody, V domains shown) VH: QVQLVESGGGVVQPGRSLRLSCAASGFTFSSYGMHWVRQAPDKGLEWVAVKWDDGSNKYYADSVKGRFTISRDNSKNTLYLQMNSLRAEDTAVYYCAREGPYDFYSGYGAFDIWGQGTMVTVSS VL: DIQMTQSPSSLSASVGDRVTITCRASQGISNYLAWFQQKPGKAPKSLIYAASSLQSGVPSKFSGSGSGTDFTLTISSLQPEDFATYYCQQYNSYPRTFGQGTKVEIK = 1.02
4) H2M730N (antibody, V domains shown) VH: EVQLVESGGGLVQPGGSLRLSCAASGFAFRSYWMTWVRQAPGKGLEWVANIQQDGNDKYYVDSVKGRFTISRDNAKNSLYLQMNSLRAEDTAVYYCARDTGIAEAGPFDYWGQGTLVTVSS VL: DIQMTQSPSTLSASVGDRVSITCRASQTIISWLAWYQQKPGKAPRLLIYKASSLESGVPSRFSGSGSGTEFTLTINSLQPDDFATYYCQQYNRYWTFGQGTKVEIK = 24.4
5) H1H744N (antibody, V domains shown) VH: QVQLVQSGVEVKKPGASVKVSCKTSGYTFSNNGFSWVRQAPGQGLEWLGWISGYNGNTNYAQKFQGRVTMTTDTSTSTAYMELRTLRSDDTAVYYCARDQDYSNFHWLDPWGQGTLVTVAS VL: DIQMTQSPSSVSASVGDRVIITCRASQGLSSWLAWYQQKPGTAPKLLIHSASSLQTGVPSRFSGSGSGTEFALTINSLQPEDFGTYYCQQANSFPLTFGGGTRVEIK = 42.1
6) H1H750N (antibody, V domains shown) VH: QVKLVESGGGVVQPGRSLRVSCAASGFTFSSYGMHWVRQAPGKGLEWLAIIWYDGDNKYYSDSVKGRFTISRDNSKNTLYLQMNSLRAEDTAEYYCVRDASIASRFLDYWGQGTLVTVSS VL: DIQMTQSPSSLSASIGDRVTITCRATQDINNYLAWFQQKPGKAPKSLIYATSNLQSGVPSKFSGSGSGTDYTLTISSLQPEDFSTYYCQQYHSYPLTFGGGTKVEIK = 30.2
7) H1H704P (antibody, V domains shown) VH: QVQLVESGGDVVQPGRSLRLSCAASGFTFSSYGMHWVRQAPGKGLEWVAIIWYDGSNKYYADSVKGRFTISRDNSKNTLYLQMNSLRVEDTAVYSCARDFSISSRHFDYWGQGTLVTVSS VL: DIQMTQSPSSLSASVGDRVTITCRASQAINNYLAWFQQKPGKAPKSLIYATSNLQSGVPSQFSGSGSGTDYTLTISSLQPEDFATYYCQQYYIYPITFGQGTRLEIK = 3.31
8) H2M742N (antibody, V domains shown) VH: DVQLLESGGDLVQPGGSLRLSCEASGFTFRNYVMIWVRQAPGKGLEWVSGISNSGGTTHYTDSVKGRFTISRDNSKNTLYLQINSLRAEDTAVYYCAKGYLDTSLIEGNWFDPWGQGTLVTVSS VL: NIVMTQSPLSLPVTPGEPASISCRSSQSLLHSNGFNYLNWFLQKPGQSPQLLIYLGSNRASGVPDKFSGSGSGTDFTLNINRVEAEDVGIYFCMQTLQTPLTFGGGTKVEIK = 18
9) H2M749N (antibody, V domains shown, also called H1M749N; H1M749) VH: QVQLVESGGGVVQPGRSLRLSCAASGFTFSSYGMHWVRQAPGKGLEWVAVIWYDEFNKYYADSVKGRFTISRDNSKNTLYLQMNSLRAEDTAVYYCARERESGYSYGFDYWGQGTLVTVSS VL: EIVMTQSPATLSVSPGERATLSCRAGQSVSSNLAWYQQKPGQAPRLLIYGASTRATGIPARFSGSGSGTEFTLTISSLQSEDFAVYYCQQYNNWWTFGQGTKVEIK = 27.9
10) H1H749N (antibody, V domains shown) VH: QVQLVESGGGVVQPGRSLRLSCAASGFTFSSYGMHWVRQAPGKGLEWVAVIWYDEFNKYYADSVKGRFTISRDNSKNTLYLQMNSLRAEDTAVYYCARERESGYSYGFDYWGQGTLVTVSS VL: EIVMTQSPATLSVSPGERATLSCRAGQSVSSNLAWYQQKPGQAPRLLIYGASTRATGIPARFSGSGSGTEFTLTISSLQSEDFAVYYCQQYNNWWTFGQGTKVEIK = 33.5
